Data provenance: patent US12582641B2

System: MM.1S cells
assay overview: Proliferation inhibition (IC50) in MM.1S cells, cell viability assay
condition details: Homo sapiens, MM1.S, 72 h, read-out: IC50 (nM), proliferation inhibitory activity of MM.1S cells (half inhibitory concentration)
property name: IC50 (nM)

Known IC50 results, listed for orientation:
>>> measured_value("O=C1CCC(N2Cc3c(SCc4cc(Br)c(CNC5CCCCC5)cc4Br)cccc3C2=O)C(=O)N1 (centres unmarked)")
4.98
>>> measured_value("O=C1CCC(N2Cc3c(SCc4csc(CNC5CCCC5)n4)cccc3C2=O)C(=O)N1 (centres unmarked)")
7.55
>>> measured_value("Cc1ccc(NC(=O)NCCCCSc2cccc3c2CN(C2CCC(=O)NC2=O)C3=O)cc1Cl (centres unmarked)")
0.334

[P] O=C1CCC(N2Cc3c(SCc4ccc(CNC5C6CC7CC(C6)CC5C7)cc4)cccc3C2=O)C(=O)N1 (centres unmarked)
[Q] O=C1CCC(N2Cc3c(SCc4ccc(CN5CCCCC5)cc4F)cccc3C2=O)C(=O)N1 (centres unmarked)
[R] CC(C)(C)NCc1ccc(CSc2cccc3c2CN(C2CCC(=O)NC2=O)C3=O)cc1 (centres unmarked)
[S] O=C1CCC(N2Cc3c(SCc4ccc(CCN5CCSCC5)cc4)cccc3C2=O)C(=O)N1 (centres unmarked)
[T] O=C1CCC(N2Cc3c(SCCc4ccc(CN5CCCCC5)cc4)cccc3C2=O)C(=O)N1 (centres unmarked)
Input line: Write the entries in order, lowest recorded IC50 first. Your reply should list the labels following the order given in the request.
Output line: S, P, Q, R, T

---

System: MM.1S cells
assay overview: Proliferation inhibition (IC50) in MM.1S cells, cell viability assay
condition details: Homo sapiens, MM1.S, 72 h, read-out: IC50 (nM), proliferation inhibitory activity of MM.1S cells (half inhibitory concentration)
property name: IC50 (nM)

Known IC50 results, listed for orientation:
>>> measured_value("CN(C)CCOCCOCCSc1cccc2c1CN(C1CCC(=O)NC1=O)C2=O (stereo not drawn)")
4.96
>>> measured_value("O=C1CCC(N2C(=O)c3cccc(SCc4ccc(CNC56CC7CC(CC(C7)C5)C6)cc4)c3C2=O)C(=O)N1 (stereo not drawn)")
0.621
>>> measured_value("O=C1CCC(N2Cc3c(SCc4ccc(CNC5CCCCC5)cc4)cccc3C2=O)C(=O)N1 (stereo not drawn)")
0.072
>>> measured_value("CC1(C)[C@@H]2CC[C@@]1(C)[C@@H](NCCCCCSc1cccc3c1CN(C1CCC(=O)NC1=O)C3=O)C2 (stereo partly drawn)")
0.027
>>> measured_value("O=C1CCC(N2Cc3c(SCCCCCCCNC4CC5(CCC5)C4)cccc3C2=O)C(=O)N1 (stereo not drawn)")
0.006
>>> measured_value("CN1CCN(Cc2ccc(CSc3cccc4c3CN(C3CCC(=O)NC3=O)C4=O)cc2)CC1 (stereo not drawn)")
0.12

[A] O=C1CCC(N2Cc3c(SCCCCCCCN4Cc5ccccc5C4)cccc3C2=O)C(=O)N1 (stereo not drawn)
[B] O=C1CCC(N2Cc3c(SCCCCCCCCCS(=O)(=O)CCCC(F)(F)C(F)(F)F)cccc3C2=O)C(=O)N1 (stereo not drawn)
[C] O=C1CCC(N2Cc3c(SCc4ccc(CCNC56CC7CC(CC(C7)C5)C6)cc4)cccc3C2=O)C(=O)N1 (stereo not drawn)
Input line: Write the entries in order, lowest recorded IC50 first. Your reply should list the labels following the order given in the request.
Output line: C, A, B
(C: 0.018 nM, A: 0.082 nM, B: 1.59 nM)

---

Test system: MM.1S cells
assay overview: Proliferation inhibition (IC50) in MM.1S cells, cell viability assay
condition details: Homo sapiens, MM1.S, 72 h, read-out: IC50 (nM), proliferation inhibitory activity of MM.1S cells (half inhibitory concentration)
property name: IC50 (nM)

Known IC50 results, listed for orientation:
>>> measured_value("O=C1CCC(N2Cc3c(SCCCCCCNC45CC6CC(CC(C6)C4)C5)cccc3C2=O)C(=O)N1 (stereo not shown)")
0.041
>>> measured_value("O=C1CCC(N2Cc3c(SCc4ccc(CN5CCC6(CC5)CC6)cc4)cccc3C2=O)C(=O)N1 (stereo not shown)")
0.04
>>> measured_value("O=C1CCC(N2Cc3c(SCCCCCCCNCC45CC6CC(CC(C6)C4)C5)cccc3C2=O)C(=O)N1 (stereo not shown)")
0.044
>>> measured_value("O=C1CCC(N2Cc3c(SCCCCCCCCN4CCN(CCCCCCCCSc5cccc6c5CN(C5CCC(=O)NC5=O)C6=O)CC4)cccc3C2=O)C(=O)N1 (stereo not shown)")
0.49

[1] CCCCCSc1cccc2c1CN(C1CCC(=O)NC1=O)C2=O (stereo not shown)
[2] CC1(C)CCN(Cc2ccc(CSc3cccc4c3CN(C3CCC(=O)NC3=O)C4=O)cc2)CC1 (stereo not shown)
Input line: Looking at 1 and 2 , which one comes out lower in IC50 terms? Record your answer as the label of the chosen record.
Output line: 2
(2: 0.03 nM, 1: 1.48 nM)

---

Tested on: MM.1S cells
assay overview: Proliferation inhibition (IC50) in MM.1S cells, cell viability assay
condition details: Homo sapiens, MM1.S, 72 h, read-out: IC50 (nM), proliferation inhibitory activity of MM.1S cells (half inhibitory concentration)
property name: IC50 (nM)

Known IC50 results, listed for orientation:
>>> measured_value("O=C1CCC(N2Cc3c(SCc4nc(CN5CCOCC5)cs4)cccc3C2=O)C(=O)N1 (stereo not shown)")
5.03
>>> measured_value("O=C1CCC(N2Cc3c(SCc4nc(CN5CCCCC5)cs4)cccc3C2=O)C(=O)N1 (stereo not shown)")
2.56
>>> measured_value("O=C1CCC(N2Cc3c(SCCCCCCN4CCOCC4)cccc3C2=O)C(=O)N1 (stereo not shown)")
0.7
>>> measured_value("O=C1CCC(N2Cc3c(SCCCCCCCOC4C5CC6CC(C5)CC4C6)cccc3C2=O)C(=O)N1 (stereo not shown)")
0.068

[P] O=C1CCC(N2Cc3c(SCc4ccc(CNCC5CCCCO5)cc4)cccc3C2=O)C(=O)N1 (stereo not shown)
[Q] CCCCCCCCSc1cccc2c1CN(C1CCC(=O)NC1=O)C2=O (stereo not shown)
Input line: Sorting by IC50 in descending order, would P or Q appear first? Record your answer as the label of the chosen record.
Output line: Q

[I] O=C1CCC(N2Cc3c(SCCc4ccc(CNC5CCCCC5)cc4)cccc3C2=O)C(=O)N1 (stereo not shown)
[II] O=C1CCC(N2Cc3c(SCc4csc(CN5CCOCC5)n4)cccc3C2=O)C(=O)N1 (stereo not shown)
[III] O=C1CCC(N2Cc3c(SCc4csc(CN5CCCCCC5)n4)cccc3C2=O)C(=O)N1 (stereo not shown)
[IV] O=C1CCC(N2Cc3c(SCCCCCCCN4CCOCC4)cccc3C2=O)C(=O)N1 (stereo not shown)
Input line: Order these by IC50, descending, and give the full ranking. Your reply should list the labels following the order given in the request.
Output line: II, III, I, IV

---

Tested on: MM.1S cells
assay overview: Proliferation inhibition (IC50) in MM.1S cells, cell viability assay
condition details: Homo sapiens, MM1.S, 72 h, read-out: IC50 (nM), proliferation inhibitory activity of MM.1S cells (half inhibitory concentration)
property name: IC50 (nM)

Known IC50 results, listed for orientation:
>>> measured_value("CS(=O)(=O)N1CCN(CCCCCCCSc2cccc3c2CN(C2CCC(=O)NC2=O)C3=O)CC1 (centres unmarked)")
0.54
>>> measured_value("O=C1CCC(N2Cc3c(SCCCCCCNC(=O)C45CC6CC(CC(C6)C4)C5)cccc3C2=O)C(=O)N1 (centres unmarked)")
0.07
>>> measured_value("O=C1CCC(N2Cc3c(SCCCCCCC(=O)N4CCCCC4)cccc3C2=O)C(=O)N1 (centres unmarked)")
0.05
>>> measured_value("O=C1CCC(N2Cc3cc(SCCCCCCCNC45CC6CC(CC(C6)C4)C5)ccc3C2=O)C(=O)N1 (centres unmarked)")
164
>>> measured_value("O=C1CCC(N2Cc3c(SCc4ccc(CN5CCC6(CCCCC6)CC5)cc4)cccc3C2=O)C(=O)N1 (centres unmarked)")
0.2

[a] O=C1CCC(N2Cc3c(SCCCCCCCCO)cccc3C2=O)C(=O)N1 (centres unmarked)
[b] O=C1CCC(N2C(=O)c3ccc(SCCCCCCCNC45CC6CC(CC(C6)C4)C5)cc3C2=O)C(=O)N1 (centres unmarked)
Input line: Looking at a and b , which one comes out lower in IC50 terms? Record your answer as the label of the chosen record.
Output line: a

[1] O=C1CCC(N2Cc3c(SCCCCCCCCN4CCCCC4=O)cccc3C2=O)C(=O)N1 (centres unmarked)
[2] O=C1CCC(N2Cc3c(SCCCCCCCNC45CC6CC(CC(C6)C4)C5)cccc3C2=O)C(=O)N1 (centres unmarked)
[3] O=C1CCC(N2Cc3c(SCCCCCCCCS)cccc3C2=O)C(=O)N1 (centres unmarked)
Input line: Order these by IC50, descending, and give the full ranking. Your reply should list the labels following the order given in the request.
Output line: 3, 1, 2
(3: 2.73 nM, 1: 0.13 nM, 2: 0.02 nM)

[1] CC(C)(C)NCCCCCCCSc1cccc2c1CN(C1CCC(=O)NC1=O)C2=O (centres unmarked)
[2] O=C1CCC(N2Cc3c(SCCCCCCCCNC4C5CC6CC(C5)CC4C6)cccc3C2=O)C(=O)N1 (centres unmarked)
[3] O=C1CCC(N2Cc3c(SCCCCCCCN4CCC5(CCCCC5)CC4)cccc3C2=O)C(=O)N1 (centres unmarked)
[4] CCN(CC)CCCCCCCSc1cccc2c1CN(C1CCC(=O)NC1=O)C2=O (centres unmarked)
[5] O=C1CCC(N2Cc3c(SCCCCCCC(=O)NC4C5CC6CC(C5)CC4C6)cccc3C2=O)C(=O)N1 (centres unmarked)
Input line: Order these by IC50, descending, and give the full ranking. Your reply should list the labels following the order given in the request.
Output line: 4, 1, 2, 3, 5
